Attribution: patent US20250340595A1

Molecular target: T1, Recombinant human TfR1, His6-tagged (a.a. 89-760) (human, UniProt P02786 89-760)
T1 construct: range 89-760; captured and coupled on an NTA chip for SPR; also called transferrin receptor 1; CD71
T1 sequence (P02786 89-760 limits assumed): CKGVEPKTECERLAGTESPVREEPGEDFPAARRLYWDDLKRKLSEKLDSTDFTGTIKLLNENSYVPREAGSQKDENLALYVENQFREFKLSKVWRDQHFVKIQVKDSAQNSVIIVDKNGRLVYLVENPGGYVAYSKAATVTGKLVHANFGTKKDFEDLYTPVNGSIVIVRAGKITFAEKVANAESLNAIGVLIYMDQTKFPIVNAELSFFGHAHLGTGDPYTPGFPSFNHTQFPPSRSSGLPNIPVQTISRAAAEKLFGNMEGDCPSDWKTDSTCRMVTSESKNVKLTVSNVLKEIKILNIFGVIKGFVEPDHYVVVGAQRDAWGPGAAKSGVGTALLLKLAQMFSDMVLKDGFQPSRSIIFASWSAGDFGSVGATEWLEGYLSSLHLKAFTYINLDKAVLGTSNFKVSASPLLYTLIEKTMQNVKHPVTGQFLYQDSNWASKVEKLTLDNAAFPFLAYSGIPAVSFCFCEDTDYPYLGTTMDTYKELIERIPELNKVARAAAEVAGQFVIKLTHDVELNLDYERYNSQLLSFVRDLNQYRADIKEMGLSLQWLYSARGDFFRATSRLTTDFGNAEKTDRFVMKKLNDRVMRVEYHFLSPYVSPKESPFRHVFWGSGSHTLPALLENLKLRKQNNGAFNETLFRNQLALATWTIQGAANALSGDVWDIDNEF
Experiment: SPR, TfR1 on chip
Starred links: 1 amine or outer side, 2 acyl side, 3 side chain; linkers in the order of their positions; H or OH if unused. Positions of bridges follow the written chain, without caps; N, C: chain ends. Non-standard residues stand in square brackets, D forms with d. No end group written: not given here. TATB = O=C(C[*:1])N1CN(C(=O)C[*:2])CN(C(=O)C[*:3])C1; 4Pal = N[C@@H](Cc1ccncc1)C(=O)O
quantity.name: Kd (nM)
Answers are plain numbers, in nM.

Quick batch: Kd for everything below.
1. Ac-CSPDAHLGCISYC (linker 1-9-13 via TATB) [BCY15891]
2. ACSPDAHLGCIS[4Pal]CA (linker 2-10-14 via TATB) [BCY16032]
3. HTSCSPDAHLGCISYCA (linker 4-12-16 via TATB) [BCY17111]

Reply text:
1: 46; 2: 305; 3: 8.3
